// values below are reported solubility kinetic
- method_notes: Kinetic solubility of the compound in DMSO at pH 7.4
- Assay type: physicochemical
- test_settings: read-out: Kinetic_solubility
Numeric answer only, unit µg/mL assumed.

Field: example entries. Status: answers known.
N#Cc1ccc(CC(=O)c2cc3n(n2)CCCC3)nc1
30
Clc1cccc(-c2cc3n(n2)CCCC3)c1
20
N#Cc1ccc(COc2cc3n(n2)CCCC3)nc1
100
c1ccc(-c2cc3n(n2)CCCC3)nc1
180

Now take the following molecule into account.
stdin: Assign solubility kinetic to the following record: O=C(Nc1ccc(F)cn1)c1cc2n(n1)CCCC2
stdout: 40

----------
- assayed_target: Metabotropic glutamate receptor 5 (Rattus norvegicus, UniProt P31424)
- Sequence (P31424 whole entry): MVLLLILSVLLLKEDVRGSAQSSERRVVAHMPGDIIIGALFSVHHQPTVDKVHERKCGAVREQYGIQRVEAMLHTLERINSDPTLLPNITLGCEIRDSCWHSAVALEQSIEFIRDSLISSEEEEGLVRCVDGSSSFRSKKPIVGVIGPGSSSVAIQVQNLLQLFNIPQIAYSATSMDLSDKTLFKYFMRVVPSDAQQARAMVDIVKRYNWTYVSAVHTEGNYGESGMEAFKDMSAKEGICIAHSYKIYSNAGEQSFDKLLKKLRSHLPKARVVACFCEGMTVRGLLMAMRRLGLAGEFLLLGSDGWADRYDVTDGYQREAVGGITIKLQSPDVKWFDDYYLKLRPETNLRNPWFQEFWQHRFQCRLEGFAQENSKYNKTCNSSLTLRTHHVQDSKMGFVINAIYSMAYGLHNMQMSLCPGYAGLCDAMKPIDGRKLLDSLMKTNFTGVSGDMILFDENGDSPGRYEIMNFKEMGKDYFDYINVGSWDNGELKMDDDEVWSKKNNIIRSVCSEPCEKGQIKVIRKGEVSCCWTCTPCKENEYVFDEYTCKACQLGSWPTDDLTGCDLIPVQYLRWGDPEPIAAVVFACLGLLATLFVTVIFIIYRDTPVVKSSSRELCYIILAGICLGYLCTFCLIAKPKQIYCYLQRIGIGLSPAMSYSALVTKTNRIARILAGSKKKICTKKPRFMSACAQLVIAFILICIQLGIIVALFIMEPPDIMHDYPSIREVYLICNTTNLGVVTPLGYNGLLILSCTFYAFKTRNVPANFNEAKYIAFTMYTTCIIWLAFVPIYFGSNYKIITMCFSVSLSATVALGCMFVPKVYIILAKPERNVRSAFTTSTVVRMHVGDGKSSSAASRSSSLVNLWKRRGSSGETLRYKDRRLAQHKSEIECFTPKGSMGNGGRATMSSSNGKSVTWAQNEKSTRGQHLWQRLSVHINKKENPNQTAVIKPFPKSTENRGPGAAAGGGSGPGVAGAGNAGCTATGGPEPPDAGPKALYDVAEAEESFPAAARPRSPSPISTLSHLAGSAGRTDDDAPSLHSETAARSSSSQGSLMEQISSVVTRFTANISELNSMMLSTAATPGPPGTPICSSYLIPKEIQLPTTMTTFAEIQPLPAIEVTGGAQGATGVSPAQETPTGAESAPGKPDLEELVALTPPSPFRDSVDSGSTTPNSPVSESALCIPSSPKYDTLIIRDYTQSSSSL
- method_notes: Negative allosteric modulation of rat mGluR5 receptor expressed in HEK293 cells assessed as intracellular calcium flux after 170 seconds by FLIPR assay
- Type: functional, cell-based
- test_settings: read-out: IC50
Each entry below lists one item and its recorded log10 of IC50 value.
Remember, log10 of IC50, in nM.

As a guide, the following entries are already answered.
N#Cc1ccc(CC(=O)c2nn3c(c2C(F)(F)F)CCCC3)nc1
3.86
Clc1ccc(COc2cc3n(n2)CCCC3)nc1
3.19
FC(F)(F)c1cccc(-c2cc3n(n2)CCCC3)c1
3.60
c1ccc(COc2cc3n(n2)CCCC3)nc1
3.40

stdin: Please indicate log10 of IC50 recorded for Clc1ccc(-c2cc3n(n2)CCCC3)nc1
stdout: 2.83

stdin: Provide only the value of recorded log10 of IC50 for N#Cc1ccc(NC(=O)c2cc3ccccn3n2)nc1
stdout: 3.26

stdin: Using the record for N#Cc1ccc(COc2cc3n(n2)CCCC3)nc1 , state its measured log10 of IC50.
stdout: 2.50

stdin: Give me measured log10 of IC50, please, for this molecule: Cc1ccc(-c2cc3n(n2)CCCC3)nc1
stdout: 3.48

stdin: Look up and report measured log10 of IC50 for this entry: Clc1cccc(-c2cc3n(n2)CCCC3)n1
stdout: 3.18

stdin: Indicate its recorded log10 of IC50; the molecule in question is O=C(Nc1cccc(F)n1)c1cc2n(n1)CCCC2
stdout: 3.68

stdin: # return recorded log10 of IC50 for input Cc1cccc(COc2cc3n(n2)CCCC3)c1
stdout: 2.89

stdin: Report measured log10 of IC50; entry is Clc1ccccc1-c1cc2n(n1)CCCC2
stdout: 3.42

----------
Attribute: INH
- assayed_target: Metabotropic glutamate receptor 5 (Rattus norvegicus) (UniProt P31424)
- Sequence (P31424 21-1203 limits assumed): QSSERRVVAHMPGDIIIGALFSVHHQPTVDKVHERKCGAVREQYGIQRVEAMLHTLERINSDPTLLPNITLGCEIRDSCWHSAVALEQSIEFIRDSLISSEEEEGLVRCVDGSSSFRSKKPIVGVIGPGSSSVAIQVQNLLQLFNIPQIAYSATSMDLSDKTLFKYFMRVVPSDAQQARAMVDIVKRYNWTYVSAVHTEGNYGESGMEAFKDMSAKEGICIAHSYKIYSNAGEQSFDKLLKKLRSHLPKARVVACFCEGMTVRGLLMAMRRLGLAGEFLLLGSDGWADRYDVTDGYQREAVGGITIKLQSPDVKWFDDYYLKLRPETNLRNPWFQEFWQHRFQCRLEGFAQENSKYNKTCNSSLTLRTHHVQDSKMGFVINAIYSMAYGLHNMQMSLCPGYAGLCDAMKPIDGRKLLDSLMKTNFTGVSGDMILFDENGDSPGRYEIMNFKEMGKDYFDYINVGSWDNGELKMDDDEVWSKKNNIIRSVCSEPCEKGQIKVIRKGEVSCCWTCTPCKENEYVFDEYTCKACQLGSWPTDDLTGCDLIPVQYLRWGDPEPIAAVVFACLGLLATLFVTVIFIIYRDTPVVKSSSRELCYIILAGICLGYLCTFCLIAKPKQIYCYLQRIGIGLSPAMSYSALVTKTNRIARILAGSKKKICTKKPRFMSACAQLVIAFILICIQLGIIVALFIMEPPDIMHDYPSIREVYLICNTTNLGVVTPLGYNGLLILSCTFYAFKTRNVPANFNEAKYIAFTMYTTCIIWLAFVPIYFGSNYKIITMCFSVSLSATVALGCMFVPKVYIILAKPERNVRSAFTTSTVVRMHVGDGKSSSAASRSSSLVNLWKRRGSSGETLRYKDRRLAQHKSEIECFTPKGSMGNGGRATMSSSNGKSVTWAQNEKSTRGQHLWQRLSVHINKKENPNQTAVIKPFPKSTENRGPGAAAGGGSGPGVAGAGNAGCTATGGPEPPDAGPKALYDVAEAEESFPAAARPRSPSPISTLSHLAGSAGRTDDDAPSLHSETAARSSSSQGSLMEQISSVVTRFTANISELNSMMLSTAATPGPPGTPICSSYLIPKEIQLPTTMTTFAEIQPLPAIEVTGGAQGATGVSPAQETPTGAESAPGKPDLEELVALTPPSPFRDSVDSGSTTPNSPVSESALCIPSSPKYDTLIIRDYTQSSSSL
- method_notes: Displacement of [3H]MPEP from mGluR5 receptor in Sprague-Dawley rat cortical homogenate after 1 hr by liquid scintillation spectrometric analysis
Give just the numeric value; nM need not be written.

Some solved cases for reference:
N#Cc1ccc(COc2cc3n(n2)CCCC3)nc1
299
O=C(Nc1ccc(F)cn1)c1cc2n(n1)CCCC2
166
N#Cc1ccc(NC(=O)c2cc3n(n2)CCCC3)nc1
151
N#Cc1ccc(CC(=O)c2cc3n(n2)CCCC3)nc1
139
Clc1cccc(-c2cc3n(n2)CCCC3)c1
401

Now for a further compound.
stdin: Respond only with INH recorded for c1ccc(-c2cc3n(n2)CCCC3)nc1
stdout: 1180

----------
- assayed_target: Metabotropic glutamate receptor 5 (Rattus norvegicus) (UniProt P31424)
- method_notes: Partial negative allosteric modulation of rat mGluR5 receptor expressed in HEK293 cells assessed as intracellular calcium flux after 170 seconds by FLIPR assay relative to control
- Assay type: functional, cell-based
measure_name: pIC50
The quantity pIC50 is defined as the negative base-10 logarithm of the molar concentration.

N#Cc1cccc(COc2cc3n(n2)CCCC3)c1
6.35

Now consider a different molecule.
stdin: Fill in: pIC50 on Metabotropic glutamate receptor 5 (Rattus norvegicus) (UniProt P31424), entry Clc1cccc(COc2cc3n(n2)CCCC3)c1
stdout: 6.48
